# target under test: T1, Recombinant Human DLL4 (delta-like protein 4) (human, UniProt Q9NR61 27-524)
# T1 construct: Bought recombinant human DLL4 coated on the ELISA plate; also called rHuman DLL4
# assay details: ELISA, DLL4 coated on plate, Fab at 25 nM (2-fold dilution series), absorbance at 450 nm
Property: ELISA signal; scope: individual binders
property measured: ELISA signal

binder="Fab VH5-51_IGHD5-18*01>3_IGHJ4*01 G100K/G104T G24A/S28R/G35V (KT ARV) & V3-4_IGLJ1*01 V91L/S96P S52P (Fab, V domains shown, Fab; Expressed in E. coli with CH1 (plasmid A, His6 and Flag tags) and lambda CL (plasmid E); also called G100K/G104T G24A/S28R/G35V & V91L/S96P S52P) VH: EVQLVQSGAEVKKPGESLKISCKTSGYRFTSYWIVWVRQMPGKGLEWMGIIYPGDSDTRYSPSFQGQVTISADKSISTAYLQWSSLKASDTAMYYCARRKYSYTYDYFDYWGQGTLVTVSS VL: QTVVTQEPSFSVSPGGTVTLTCGLSSGSVSTSYYPSWYQQTPGQAPRTLIYPTNTRSSGVPDRFSGSILGNKAALTITGAQADDESDYYCLLYMGPGISYVFGTGTKVTVL" readout_value=0.59
binder="Fab VH5-51_IGHD5-18*01>3_IGHJ4*01 G100K/G104T G24L/S28R/G35V (KT LRV) & V3-4_IGLJ1*01 V91L/S96P S52F (Fab, V domains shown, Fab; Expressed in E. coli with CH1 (plasmid A, His6 and Flag tags) and lambda CL (plasmid E); also called G100K/G104T G24L/S28R/G35V & V91L/S96P S52F) VH: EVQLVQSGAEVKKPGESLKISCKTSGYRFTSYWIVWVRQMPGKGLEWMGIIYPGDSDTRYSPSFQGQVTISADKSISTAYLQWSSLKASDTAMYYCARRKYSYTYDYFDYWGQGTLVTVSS VL: QTVVTQEPSFSVSPGGTVTLTCGLSSGSVSTSYYPSWYQQTPGQAPRTLIYFTNTRSSGVPDRFSGSILGNKAALTITGAQADDESDYYCLLYMGPGISYVFGTGTKVTVL" readout_value=0.49
binder="Fab VH5-51_IGHD5-18*01>3_IGHJ4*01 G100K/G104T G24T/S28R/G35V (KT TRV) & V3-4_IGLJ1*01 V91L/S96P S52L (Fab, V domains shown, Fab; Expressed in E. coli with CH1 (plasmid A, His6 and Flag tags) and lambda CL (plasmid E); also called H:KT TRV & L:LP S52L) VH: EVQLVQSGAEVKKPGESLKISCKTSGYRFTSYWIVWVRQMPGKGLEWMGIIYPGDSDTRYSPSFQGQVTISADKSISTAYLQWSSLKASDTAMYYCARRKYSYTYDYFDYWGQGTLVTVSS VL: QTVVTQEPSFSVSPGGTVTLTCGLSSGSVSTSYYPSWYQQTPGQAPRTLIYLTNTRSSGVPDRFSGSILGNKAALTITGAQADDESDYYCLLYMGPGISYVFGTGTKVTVL" readout_value=0.58
